Biological target: Aspartate--tRNA(Asp/Asn) ligase (Mycobacterium tuberculosis (strain ATCC 25618 / H37Rv)); note: in the data most compounds retested in dose-response had high values
Assay: Assay for Asp RNA synthetase-1 from Mycobacterium tuberculosis
Type: functional
Set-up: scale not given: direction of the effect not stated beside the values
Conditions: 30 µM
Exercise: state measured Percent Effect for each of the compounds provided.
Numbers only, in %.

Compound | Percent Effect, %
NC(=O)c1cc(C2CCCN(C(=O)CCc3ccsc3)C2)n[nH]1 (configuration not stated) | -5.77
Cc1nn(C)c(C)c1C1CCCN1Cc1nc(C2CC2)no1 (configuration not stated) | -10.2
CNC(=O)[C@H]1C[C@@H]2CN(C(=O)Nc3ccc(F)cc3)C[C@H]1O2 | -1.56

I would be grateful if you could provide Percent Effect for each of the following entries.
1. Cc1ccc(-c2nnc(CNCCn3cc(C)cn3)o2)cc1
2. CCc1nc(CN2CCCN(C(=O)CCSC)CC2)cs1
3. Fc1ccc(CN2CCCC(c3nnc(-c4cnccn4)o3)C2)cc1F (configuration not stated)

Reply |
2.15
-2.35
2.55

I would be grateful if you could provide Percent Effect for each of the following entries.
1. CN(C(=O)Cn1nc(-c2cccs2)ccc1=O)C1CCS(=O)(=O)C1 (configuration not stated)
2. CCOc1ccccc1C1CCCN1 (configuration not stated)
3. Cc1cc(NCc2cc3n(n2)CCCN(S(C)(=O)=O)C3)ncn1
4. O=C(c1cc(C2CC2)on1)N1CC[C@]2(C[C@H](Oc3cccnc3)CO2)C1
5. Cc1cnn(CC2CCCN2Cc2nc3ccccc3nc2C)c1 (configuration not stated)
6. CN(CCc1ccc(F)cc1)Cc1nc2c(cnn2C)c(=O)[nH]1

Reply |
[1.02, 2.67, -7.29, 6.67, -1.82, -1.46]

====

Biological target: Shiga toxin 2 (Escherichia coli O157:H7) (UniProt P09385+P09386)
Experiment: E. coli 0.157:H7 Shiga Toxin SOP - stx2 screening assay
Assay type: functional
Design: scale not given: direction of the effect not stated beside the values
Settings: 30 µM
Endpoint: Percent Effect
A complete answer gives the number and then names the unit.

Answered examples (10):
Molecule | Value Reported
O=C(CO[C@@H]1CC[C@H]2[C@H]1OCCN2CC1CCOCC1)N1CCCC1 | -4.47%
CN1CCN(Cc2cn3c(n2)CN(C(=O)N2CCOCC2)CC3)CC1 | -16.4%
CS(=O)(=O)NC[C@]12COC[C@H]1CN(C(=O)c1ccccc1)C2 | -16.8%
COc1ncccc1NC(=O)N(Cc1ccc(C)o1)C1CC1 | 12.1%
CCN1CC2(CC1=O)CN(Cc1cnn(C)c1)CCN(C(=O)C(C)C)C2 (centres undefined) | -10.1%
COCCCNC(=O)CN(C)C(=O)c1cc(C)ccc1N(C)C(C)C | 4.69%
COCCn1cc2c(n1)C(CNCc1ccc(F)cc1)OCC2 (centres undefined) | -6.53%
O=C(NCCCNCC1CNc2ccnn2C1)c1ccccc1 (centres undefined) | -16.8%
CCN1Cc2c(C(=O)NCC3CC3)ncn2-c2ccccc2S1(=O)=O | 8.11%
CCc1[nH]ncc1C(=O)N1CCCN(Cc2cnn(C)c2)CC1 | 17.2%

I would be grateful if you could provide Percent Effect for each of the following entries.
1. CN(C)Cc1ccnc(C2CCCN2Cc2ccncc2)n1 (centres undefined)
2. COc1cn(-c2ccccc2)nc1C(=O)NCCCN1CCCC(C)C1 (centres undefined)
3. CC(CNCc1ccncc1)Oc1ccccn1 (centres undefined)
4. CCOc1ccc(N2CCCN=C2NC(=O)c2cccc(Cl)c2)cc1
5. CCn1ccnc1CN1CCOC(CNc2cccnn2)C1 (centres undefined)
6. CN1CCc2nc(C3CCN(C(=O)CCC4CCCC4)CC3)ncc2C1

Reply |
1: -14.5%; 2: 7%; 3: -57%; 4: -69.6%; 5: -18.9%; 6: -43.2%

====

Exercise: state measured Percent Effect for each of the compounds provided.
Biological target: Tyrosyl-tRNA synthetase, putative (Trypanosoma cruzi (strain CL Brener)) (UniProt Q4DSP6)
Sequence (whole entry): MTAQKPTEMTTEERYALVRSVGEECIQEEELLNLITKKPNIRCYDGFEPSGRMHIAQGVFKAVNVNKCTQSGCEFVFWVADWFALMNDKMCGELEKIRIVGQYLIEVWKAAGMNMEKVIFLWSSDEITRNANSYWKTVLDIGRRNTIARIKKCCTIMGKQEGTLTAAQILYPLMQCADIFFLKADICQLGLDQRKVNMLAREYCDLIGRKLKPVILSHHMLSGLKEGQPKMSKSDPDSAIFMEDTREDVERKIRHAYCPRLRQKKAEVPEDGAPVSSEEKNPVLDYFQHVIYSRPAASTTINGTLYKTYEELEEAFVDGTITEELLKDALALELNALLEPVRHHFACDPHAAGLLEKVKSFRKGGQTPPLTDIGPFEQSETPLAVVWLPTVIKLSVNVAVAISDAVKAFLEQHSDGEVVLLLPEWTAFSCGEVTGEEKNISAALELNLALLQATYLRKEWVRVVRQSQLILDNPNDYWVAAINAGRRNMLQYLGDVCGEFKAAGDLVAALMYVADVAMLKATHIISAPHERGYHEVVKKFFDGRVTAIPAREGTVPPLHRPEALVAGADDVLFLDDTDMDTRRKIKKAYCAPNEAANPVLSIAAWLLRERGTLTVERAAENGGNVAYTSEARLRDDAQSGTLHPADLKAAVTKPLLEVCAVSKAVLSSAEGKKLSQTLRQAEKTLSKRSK
Experiment: Trypanosoma cruzi tyrosyl tRNA synthetase (TcYRS) SOP
Format: functional
Parameters: scale not given: direction of the effect not stated beside the values
Settings: 30 µM
One number for each entry, in %.

Answered examples (5):
Compound | Percent Effect [%]
O=C(CC1CC1)N[C@@H]1CN(Cc2ccncc2)C[C@@H]2CCCO[C@@H]21 | 7.5
COc1cc(CNC(C)Cn2cccn2)cc(OC)c1OC (stereo not drawn) | 14.6
Cc1cc(CN2CC[C@H]3C[C@H](C(=O)N(C)C)O[C@@H]3C2)no1 | -5.13
c1ccc(OC[C@@H]2CCC[C@@]23CNCCO3)nc1 | 2.56
CCN1CCC2(COCc3cnc(-c4cccnc4)nc32)C1 (stereo not drawn) | 10.3

I would be grateful if you could provide Percent Effect for each of the following entries.
1. CC1=N[C@@]2(CC[C@@H]3CNC[C@@H]32)C(=O)N1CC(C)C
2. COCCN1CCN(Cc2ccncc2)[C@H]2CS(=O)(=O)C[C@H]21
3. CCS(=O)(=O)NC[C@]12COC[C@H]1CN(Cc1cc(C)on1)C2

Reply |
1: 0; 2: 14.6; 3: 12.8

====

Exercise: state measured Percent Effect for each of the compounds provided.
Target: Shiga toxin 2 (Escherichia coli O157:H7) (UniProt P09385+P09386)
Assay: E. coli 0.157:H7 Shiga Toxin SOP - stx2 screening assay
Format: functional
Design: scale not given: direction of the effect not stated beside the values
Settings: 30 µM
Answers are plain numbers, in %.

Answered examples (6):
Compound | Experimental System | Endpoint | Units Symbol | Value Reported
CCCS(=O)(=O)N1CCOCC2(CCN(c3ccccn3)C2)C1 (stereo unspecified) | Shiga toxin 2 (Escherichia coli O157:H7) (UniProt P09385+P09386) | Percent Effect | % | -23.9
COc1ccc(CN2C[C@@H]3OCCN(CC4CCCO4)[C@@H]3C2)cc1 (stereo partly specified) | Shiga toxin 2 (Escherichia coli O157:H7) (UniProt P09385+P09386) | Percent Effect | % | -4.29
Cc1ncsc1CN1CC[C@H]2C[C@H](c3ccncn3)O[C@@H]2C1 | Shiga toxin 2 (Escherichia coli O157:H7) (UniProt P09385+P09386) | Percent Effect | % | 0.203
CCc1n[nH]c(C2CN(C(=O)c3nc(C)ncc3Cl)CCO2)n1 (stereo unspecified) | Shiga toxin 2 (Escherichia coli O157:H7) (UniProt P09385+P09386) | Percent Effect | % | -0.974
CCc1nnc2n1CCN(CC(=O)Nc1cc(C(C)(C)C)nn1C)C2 | Shiga toxin 2 (Escherichia coli O157:H7) (UniProt P09385+P09386) | Percent Effect | % | 28.9
COCC1CC2(CCN(C(=O)c3cccc(C)c3)CC2)CO1 (stereo unspecified) | Shiga toxin 2 (Escherichia coli O157:H7) (UniProt P09385+P09386) | Percent Effect | % | -2.68

I would be grateful if you could provide Percent Effect for each of the following entries.
1. O=C(NCc1ccccn1)[C@H]1COC[C@H]2CN(Cc3ccoc3)C[C@H]21
2. CN(CCNC(=O)Nc1ccncc1)C1CCCCC1
3. CCN(CC)c1ccc(C(=O)NCc2cccnc2-n2cncn2)cn1
4. COc1cc(C(=O)N(Cc2ccc(F)cc2)C2CC2)cc2c1OCCO2
5. Cc1nnc2n1CCN(CCC(=O)Nc1sccc1C#N)C2

Reply |
1: -0.902; 2: -5.92; 3: -12.3; 4: -12.1; 5: 22.9
